Numbers sourced from patent US7932278B2.

Where a name gives a salt, the structure may show the parent alone.
parameter measured: IC50 (nM)
Give your result in nM as a bare value.

Observed IC50 on UniProtKB P00742 for O=C(O)COCCNc1ccc(N2C[C@H](CNC(=O)c3ccc(Cl)s3)OC2=O)cc1 [Example 1, hydrochloride] , please.
Sequence (P00742 235-488 limits assumed): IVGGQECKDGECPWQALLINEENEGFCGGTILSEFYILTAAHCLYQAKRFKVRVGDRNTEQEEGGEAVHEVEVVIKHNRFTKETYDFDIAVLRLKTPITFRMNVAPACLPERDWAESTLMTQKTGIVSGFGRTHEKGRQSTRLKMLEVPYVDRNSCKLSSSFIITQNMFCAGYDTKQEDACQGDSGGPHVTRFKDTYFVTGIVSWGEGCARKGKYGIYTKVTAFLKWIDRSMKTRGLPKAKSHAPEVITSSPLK
Sequence (P00742 41-179 partner limits assumed): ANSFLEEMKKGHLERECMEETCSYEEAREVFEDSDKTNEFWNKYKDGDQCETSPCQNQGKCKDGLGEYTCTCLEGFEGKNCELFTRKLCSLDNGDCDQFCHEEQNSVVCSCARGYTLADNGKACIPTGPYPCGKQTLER
32
